Tested target: Human recombinant PDE2A (hPDE2A) (Homo sapiens)
Construct: His tag (inferred from metal chelate purification); made in house; host or cells: Sf9 insect cells (baculovirus)
Sequence (O00408 whole entry): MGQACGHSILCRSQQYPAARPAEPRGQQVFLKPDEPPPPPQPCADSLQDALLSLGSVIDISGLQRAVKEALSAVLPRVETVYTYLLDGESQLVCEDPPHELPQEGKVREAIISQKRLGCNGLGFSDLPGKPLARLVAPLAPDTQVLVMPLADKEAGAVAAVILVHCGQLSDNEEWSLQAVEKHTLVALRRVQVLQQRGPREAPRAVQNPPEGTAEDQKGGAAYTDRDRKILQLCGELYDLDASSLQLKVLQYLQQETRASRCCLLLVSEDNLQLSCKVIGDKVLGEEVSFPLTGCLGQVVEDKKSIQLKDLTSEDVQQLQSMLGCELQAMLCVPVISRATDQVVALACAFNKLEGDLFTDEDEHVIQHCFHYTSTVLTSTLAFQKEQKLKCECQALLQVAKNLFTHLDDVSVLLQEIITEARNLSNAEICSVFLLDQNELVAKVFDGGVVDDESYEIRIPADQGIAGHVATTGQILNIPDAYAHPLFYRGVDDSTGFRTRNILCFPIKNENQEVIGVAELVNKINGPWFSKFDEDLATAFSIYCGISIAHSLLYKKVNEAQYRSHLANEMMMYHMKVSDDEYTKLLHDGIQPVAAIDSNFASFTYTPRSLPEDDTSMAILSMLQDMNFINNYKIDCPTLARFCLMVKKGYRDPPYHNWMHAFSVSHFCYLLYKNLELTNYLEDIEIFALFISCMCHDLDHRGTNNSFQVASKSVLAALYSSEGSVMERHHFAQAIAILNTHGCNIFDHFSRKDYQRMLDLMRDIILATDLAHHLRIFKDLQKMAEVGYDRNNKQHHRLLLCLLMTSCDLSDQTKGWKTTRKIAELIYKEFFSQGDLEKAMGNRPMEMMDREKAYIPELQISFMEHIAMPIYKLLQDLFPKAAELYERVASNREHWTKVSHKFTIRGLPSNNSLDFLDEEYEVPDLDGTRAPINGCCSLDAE
Assay method text: In vitro assay PDE2A (SPA, 3H-cGMP hydrolysis)
Assay type: biochemical
Condition label: read-out: hPDE2A Emax
Property measured: Emax (%)

Compound: COc1ccc(C(=O)N2CC[C@@H](C)[C@H](c3cc(C(F)F)nc4ncnn34)C2)cc1OC(F)F
Units label: %
Val: 100
//
Compound: Cc1nc2cc(C(=O)N3CC[C@@H](C)[C@H](c4cc(C(F)F)nc5ncnn45)C3)ccc2o1
Units label: %
Val: 99
//
Compound: C[C@@H]1CCN(C(=O)c2ncc(C#N)cc2Cl)C[C@H]1c1cc(C(F)F)nc2ncnn12
Units label: %
Val: 94
//
Compound: C[C@@H]1CCN(C(=O)c2nccnc2Cl)C[C@H]1c1cc(C(F)F)nc2ncnn12
Units label: %
Val: 97
//
Compound: C/C(=C\c1ccccc1)C(=O)N1[C@H]2CC[C@H](c3cc(C(F)F)nc4ncnn34)[C@@H]1CC2
Units label: %
Val: 101
//
Compound: Cc1cc([C@@H]2CN(C(=O)c3ccc4occ(C)c4c3)CC[C@H]2C)n2ncnc2n1
Units label: %
Val: 100
//
Compound: Cc1nn(C)cc1C(=O)N1CCC[C@](C)(c2cc(C(F)F)nc3ncnn23)C1 (single isomer, unassigned)
Units label: %
Val: 21

---

Tested target: Human recombinant PDE2A (hPDE2A) (Homo sapiens)
Construct: His tag (inferred from metal chelate purification); made in house; host or cells: Sf9 insect cells (baculovirus)
Assay method text: In vitro assay PDE2A (SPA, 3H-cGMP hydrolysis)
Assay type: biochemical
Condition label: human recombinant PDE2A
Listed here: items and their measured hPDE2A Emax.

Compound: Cc1cc(C(=O)N2[C@H]3CC[C@H](c4cc(C(F)F)nc5ncnn45)[C@@H]2CC3)cc(C)n1 (racemic)
hPDE2A Emax: 100
//
Compound: Cc1cc(C(=O)N2CC[C@H](C)[C@@H](c3cc(C)nc4ncnn34)C2)cc(C)n1
hPDE2A Emax: 88
//
Compound: Cc1cc(C(=O)N2CC[C@@H](C)[C@](F)(c3cc(C(F)F)nc4ncnn34)C2)cc(C2CC2)n1 [Compound 24b]
hPDE2A Emax: 98
//
Compound: O=C(c1ccc2ncsc2c1)N1[C@H]2CC[C@@H]1[C@H](c1cc(C(F)F)nc3ncnn13)CC2 [Compound 25b]
hPDE2A Emax: 92
//
Compound: Cc1cc(C(=O)N2CC[C@@H](C)[C@H](c3cc(C#N)nc4ncnn34)C2)cc(C)n1 [Compound 26a]
hPDE2A Emax: 21
//
Compound: Cc1cc(C(=O)N2CC[C@H](C)[C@@H](c3cc(C#N)nc4ncnn34)C2)cc(C)n1 [Compound 26b]
hPDE2A Emax: 98

---

Tested target: PDE2A (Rattus norvegicus)
Construct: Twenty μm-thick striatal sections were cut; from tissue; host or cells: rat brain, striatal sections
Sequence (Q01062 whole entry): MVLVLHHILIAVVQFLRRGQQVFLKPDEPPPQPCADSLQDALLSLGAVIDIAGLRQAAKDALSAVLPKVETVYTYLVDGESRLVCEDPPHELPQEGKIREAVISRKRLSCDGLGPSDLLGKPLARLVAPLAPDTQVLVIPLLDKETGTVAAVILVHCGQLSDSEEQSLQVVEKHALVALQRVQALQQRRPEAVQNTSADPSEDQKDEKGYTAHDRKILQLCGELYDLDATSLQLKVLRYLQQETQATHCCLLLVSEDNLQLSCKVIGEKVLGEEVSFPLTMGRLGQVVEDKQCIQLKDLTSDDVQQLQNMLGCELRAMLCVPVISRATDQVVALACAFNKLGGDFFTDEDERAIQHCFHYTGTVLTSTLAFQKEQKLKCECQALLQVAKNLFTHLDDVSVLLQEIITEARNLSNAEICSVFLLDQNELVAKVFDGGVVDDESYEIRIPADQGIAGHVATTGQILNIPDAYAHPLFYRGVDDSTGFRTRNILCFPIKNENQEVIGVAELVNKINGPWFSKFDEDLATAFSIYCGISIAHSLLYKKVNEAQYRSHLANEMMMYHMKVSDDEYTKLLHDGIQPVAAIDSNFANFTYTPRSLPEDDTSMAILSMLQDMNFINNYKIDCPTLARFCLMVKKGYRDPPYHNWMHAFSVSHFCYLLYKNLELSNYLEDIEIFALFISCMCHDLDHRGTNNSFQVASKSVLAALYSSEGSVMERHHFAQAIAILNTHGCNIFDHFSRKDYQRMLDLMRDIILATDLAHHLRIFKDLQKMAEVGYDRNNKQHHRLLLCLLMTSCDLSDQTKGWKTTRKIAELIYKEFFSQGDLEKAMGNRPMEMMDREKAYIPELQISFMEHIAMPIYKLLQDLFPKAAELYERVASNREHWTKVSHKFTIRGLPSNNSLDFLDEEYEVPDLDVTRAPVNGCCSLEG
Assay method text: PDE2 occupancy by test compounds, ex-vivo autoradiography with [3H]B-17a
Format: in vivo, Male Wistar rats
Condition label: po, 10 mg/kg, route PO (oral), percentage receptor occupancy, ex-vivo autoradiography, striatum

Sample smiles: C[C@@H]1CCN(C(=O)c2cnc(Cl)c(Cl)c2)C[C@H]1c1cc(C(F)F)nc2ncnn12
receptor occupancy at 10 mg/kg / %: 7
--
Sample smiles: Cc1cc(C(=O)N2CC[C@@H](C)[C@H](c3cc(C(F)F)nc4ncnn34)C2)cc(C)c1F
receptor occupancy at 10 mg/kg / %: 23
--
Sample smiles: Cc1cc(C(=O)N2CC[C@@H](C)[C@H](c3cc(C)nc4ncnn34)C2)cc(C)n1
receptor occupancy at 10 mg/kg / %: 37
--
Sample smiles: COc1cc(C(=O)N2CC[C@@H](C)[C@H](c3cc(C(F)F)nc4ncnn34)C2)c(C)cn1
receptor occupancy at 10 mg/kg / %: 22
--
Sample smiles: COc1ncc(C(=O)N2CC[C@@H](C)[C@H](c3cc(C(F)F)nc4ncnn34)C2)cc1C1CC1
receptor occupancy at 10 mg/kg / %: 0
--
Sample smiles: Cc1cc(C(=O)N2CC[C@@H](C)[C@H](c3cc(C(F)F)nc4ncnn34)C2)cc(OC(C)C)n1
receptor occupancy at 10 mg/kg / %: 29
--
Sample smiles: Cc1cc(C(=O)N2CC[C@@H](C)[C@H](c3cc(C(F)F)nc4ncnn34)C2)c(F)c(C2CC2)n1
receptor occupancy at 10 mg/kg / %: 30

Data origin: patent US10947242B2
